Target: AmRDL (Apis mellifera, UniProt A0A168SJP2)
Construct: homomeric
Sequence (A0A168SJP2 19-477): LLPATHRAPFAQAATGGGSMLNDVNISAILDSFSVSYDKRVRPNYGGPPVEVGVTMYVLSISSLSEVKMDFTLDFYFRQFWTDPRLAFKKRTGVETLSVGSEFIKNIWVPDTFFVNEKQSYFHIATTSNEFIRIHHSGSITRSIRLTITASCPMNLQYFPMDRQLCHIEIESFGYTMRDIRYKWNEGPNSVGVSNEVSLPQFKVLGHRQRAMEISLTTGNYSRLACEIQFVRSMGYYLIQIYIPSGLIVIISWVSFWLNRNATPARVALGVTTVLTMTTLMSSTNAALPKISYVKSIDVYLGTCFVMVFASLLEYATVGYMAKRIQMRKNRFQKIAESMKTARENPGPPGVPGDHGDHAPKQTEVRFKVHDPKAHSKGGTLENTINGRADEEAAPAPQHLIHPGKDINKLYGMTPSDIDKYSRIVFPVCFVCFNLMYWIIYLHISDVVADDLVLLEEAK
Experiment: two-electrode voltage clamp, inhibition of GABA-induced current in Xenopus oocytes
MEASURED PROPERTY: IC50 (nM)
Report as a plain number; the unit nM is understood.

// Cc1cc(C2=NOC(c3cc(Cl)cc(Cl)c3)(C(F)(F)F)C2)ccc1C(=O)NCC(=O)NCC(F)(F)F (stereo not shown) : IC50 value = 9.38

---

Molecular target: TuRDL (Tetranychus urticae, UniProt E3WEB3)
Construct: homomeric
Sequence (E3WEB3 18-827): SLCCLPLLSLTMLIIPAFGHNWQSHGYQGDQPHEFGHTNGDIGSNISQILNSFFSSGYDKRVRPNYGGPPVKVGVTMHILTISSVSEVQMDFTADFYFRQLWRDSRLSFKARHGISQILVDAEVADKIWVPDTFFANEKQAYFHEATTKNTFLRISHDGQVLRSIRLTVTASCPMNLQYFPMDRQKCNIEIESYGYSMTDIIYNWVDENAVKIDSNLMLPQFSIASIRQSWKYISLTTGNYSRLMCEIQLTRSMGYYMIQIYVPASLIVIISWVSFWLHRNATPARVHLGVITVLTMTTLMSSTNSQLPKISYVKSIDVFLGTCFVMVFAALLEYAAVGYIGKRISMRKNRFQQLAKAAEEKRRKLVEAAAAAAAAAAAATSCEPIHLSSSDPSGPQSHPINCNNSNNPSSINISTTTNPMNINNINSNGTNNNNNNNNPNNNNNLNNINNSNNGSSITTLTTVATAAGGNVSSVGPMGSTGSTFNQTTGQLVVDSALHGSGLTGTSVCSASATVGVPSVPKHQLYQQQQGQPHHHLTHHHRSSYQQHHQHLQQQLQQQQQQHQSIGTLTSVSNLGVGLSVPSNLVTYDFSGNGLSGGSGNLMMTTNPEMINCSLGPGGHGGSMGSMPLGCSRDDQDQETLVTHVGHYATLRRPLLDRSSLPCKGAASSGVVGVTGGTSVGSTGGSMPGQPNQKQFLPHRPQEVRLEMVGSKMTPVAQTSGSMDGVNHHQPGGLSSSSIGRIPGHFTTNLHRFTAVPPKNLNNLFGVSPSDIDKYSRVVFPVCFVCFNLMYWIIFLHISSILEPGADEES
Experiment: two-electrode voltage clamp, GABA-induced current in Xenopus oocytes
MEASURED PROPERTY: pEC50
// field semantics: pEC50 = negative decimal log of concentration (mol/L)

// NCCCC(=O)O : pEC50 value = 3.53
